- Measurement target: recombinant human TFPI (tissue factor pathway inhibitor) (human, UniProt P10646 29-304)
- Test: cell-based or functional assay
# key: entry, value: A405, TF/FVIIa/FX complex assay, Ab 12.5 nM
API doc: respond with a numeric literal and nothing else, no unit.

Some binders with known A405, TF/FVIIa/FX complex assay, Ab 12.5 nM results, for comparison:
{"columns": ["Binder", "Experimental value"],
 "data": [
  ["clone 12 (antibody, V domains shown, human IgG4/kappa IgG as purified; also called No. 12 antibody) VH: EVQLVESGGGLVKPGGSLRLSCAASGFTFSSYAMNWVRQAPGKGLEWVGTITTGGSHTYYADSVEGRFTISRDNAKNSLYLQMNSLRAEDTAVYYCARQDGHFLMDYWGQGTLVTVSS VL: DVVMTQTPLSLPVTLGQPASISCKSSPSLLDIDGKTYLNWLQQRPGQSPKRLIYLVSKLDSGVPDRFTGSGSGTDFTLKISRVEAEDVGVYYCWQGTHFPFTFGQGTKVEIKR", 0.097],
  ["clone 1023 (antibody, V domains shown, scFv on yeast at selection; human IgG4/kappa IgG as purified) VH: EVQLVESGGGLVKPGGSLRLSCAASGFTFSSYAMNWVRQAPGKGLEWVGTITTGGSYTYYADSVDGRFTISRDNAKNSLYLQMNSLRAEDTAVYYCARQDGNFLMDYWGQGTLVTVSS VL: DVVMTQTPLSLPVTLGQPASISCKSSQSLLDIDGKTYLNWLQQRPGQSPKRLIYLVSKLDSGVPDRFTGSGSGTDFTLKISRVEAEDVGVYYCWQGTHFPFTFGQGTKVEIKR", 0.088],
  ["clone 1202 (antibody, V domains shown, scFv on yeast at selection; human IgG4/kappa IgG as purified; also called No. 1202 antibody) VH: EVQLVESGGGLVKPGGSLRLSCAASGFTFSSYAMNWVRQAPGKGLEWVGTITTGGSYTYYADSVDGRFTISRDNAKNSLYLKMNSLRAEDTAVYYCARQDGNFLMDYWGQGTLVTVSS VL: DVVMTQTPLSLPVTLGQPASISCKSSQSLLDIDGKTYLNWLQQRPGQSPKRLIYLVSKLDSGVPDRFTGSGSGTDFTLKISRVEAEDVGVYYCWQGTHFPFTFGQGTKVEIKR", 0.091]
]}

// query Requested read-out: A405, TF/FVIIa/FX complex assay, Ab 12.5 nM. Entry: clone 13 (antibody, V domains shown) VH: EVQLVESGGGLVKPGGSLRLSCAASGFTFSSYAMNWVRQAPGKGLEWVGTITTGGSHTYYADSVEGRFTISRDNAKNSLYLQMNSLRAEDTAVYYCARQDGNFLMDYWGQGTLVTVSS VL: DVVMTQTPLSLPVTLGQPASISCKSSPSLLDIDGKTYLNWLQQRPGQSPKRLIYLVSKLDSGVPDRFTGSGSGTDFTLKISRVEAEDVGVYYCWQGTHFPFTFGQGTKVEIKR
// result 0.101

Data provenance: patent US20180030151A1
